# Test system: IGROV1 ovarian
# EXPERIMENTAL_PROTOCOL: NCI-60 one-dose screen, 48 h
# COND: 10 µM unless noted
About 83,000 compounds went through this panel and 20% of them were active in at least one assay; those are over-represented in the sample as a whole. The source made the active and inactive calls. Rule for the calls: active = growth percent below 10; inactive = the rest.
Field 'call' accepts active, inactive

Example cases with answers are listed next.
CCN(CC)CCNc1ccc(N=Nc2cnc3ccccc3c2)c2ccccc12	active
COc1cc(-c2nc(C(=O)Nc3ccc(C)cc3)nn2-c2ccc(F)c(F)c2)cc(OC)c1OC	inactive
Clc1nc(Cl)c2ncn(CC#CCn3cnc4c(Cl)nc(Cl)nc43)c2n1	active
CN1CCC(CNc2ccc3ncc(-c4cccc(OC(F)(F)F)c4)n3n2)CC1	active

# lookup: test call for Cc1cc(N2CCCC2)nc(N(CCCNc2ccnc3cc(Cl)ccc23)Cc2ccc3c(c2)OCO3)n1
active
